// data source = patent US8143261B2

Endpoint label: melting point

Molecule	melting point
NC(=O)[C@H](CO)Nc1nc(SCc2cccc(F)c2F)nc2[nH]c(=O)sc12 [Example 26]	145 to 151 °C

Look at this molecule and give its reported melting point. C[C@H](CN)Nc1nc(SCc2cccc(Cl)c2F)nc2[nH]c(=O)sc12 [Example 25]
241 to 243 °C

Quick one: O=c1[nH]c2nc(SCc3cccc(F)c3F)nc(NC(CO)CO)c2s1 [Example 7]
178 to 179 °C

Quick one: CC(C)(CO)Nc1nc(SCc2ccccc2)nc2[nH]c(=O)sc12 [Example 1]
207 to 208 °C

Quick one: Cc1nc(CSc2nc(NC(CO)CO)c3sc(=O)[nH]c3n2)cs1 [Example 21]
239 to 243 °C

Quick one: O=c1[nH]c2nc(SCc3cccc(F)c3F)nc(N[C@@H]3CNC[C@H]3O)c2s1 [Example 18]
270 °C (dec.)
